# credit: patent US20050113420A1

- target_under_test: EcMetAP (Escherichia coli)
- Construct: made in house; host or cells: E. coli
- Sequence (P0AE18 whole entry): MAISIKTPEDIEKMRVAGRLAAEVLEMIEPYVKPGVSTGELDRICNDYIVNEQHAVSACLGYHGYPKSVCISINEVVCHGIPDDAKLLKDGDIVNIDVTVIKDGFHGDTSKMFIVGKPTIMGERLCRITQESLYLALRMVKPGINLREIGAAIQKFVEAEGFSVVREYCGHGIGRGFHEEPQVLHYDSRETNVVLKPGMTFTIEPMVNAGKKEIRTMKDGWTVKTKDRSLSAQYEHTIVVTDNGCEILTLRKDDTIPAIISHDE
- method: EcMetAP inhibition, Met-S-C-Phe thiopeptolide/DTNB assay at 412 nm
- Type: biochemical, E. coli
- particulars: Co-loaded enzyme; estimated IC50 at eight inhibitor concentrations; read-out: IC50(μM) EMetAP
Note: every record was labeled by where its IC50 sits among lower: < 2 µM; middle: ≥ 2 µM and < 6 µM; upper: ≥ 6 µM

smiles_structure=O=C(Oc1cccnc1C(=O)Nc1nccs1)c1ccccc1 category=lower
smiles_structure=O=C(Nc1nccs1)c1ncccc1O category=middle
smiles_structure=O=C(Oc1cccnc1C(=O)Nc1nccs1)c1ccc(F)c(Br)c1 category=lower
smiles_structure=O=C(Nc1nccs1)c1ccc2ccccc2n1 category=upper
smiles_structure=O=C(Nc1cccnc1C(=O)Nc1nccs1)c1ccc(F)cc1 category=lower
smiles_structure=O=C(Nc1nccs1)c1cc(Cl)ccn1 category=middle
smiles_structure=COc1ccccc1C(=O)Oc1cccnc1C(=O)Nc1nccs1 category=lower
smiles_structure=Nc1cccnc1C(=O)Nc1nccs1 category=middle
smiles_structure=CC(=O)Oc1cccnc1C(=O)Nc1nccs1 category=upper

====

- target_under_test: EcMetAP (Escherichia coli)
- Construct: made in house; host or cells: E. coli
- method: EcMetAP inhibition, Met-S-C-Phe thiopeptolide/DTNB assay at 412 nm
- Type: biochemical, E. coli
- particulars: Co-loaded enzyme; estimated IC50 at eight inhibitor concentrations; read-out: IC50(μM) EMetAP
Decide using IC50 alone. Strictly below 2 µM: Satisfied. Equal to or above 2 µM: Not satisfied.

smiles_structure=COc1cccnc1C(=O)Nc1nccs1 target_under_test="EcMetAP (Escherichia coli)" category="Not satisfied"
smiles_structure=O=C(Nc1ncc(Br)s1)c1ccccn1 target_under_test="EcMetAP (Escherichia coli)" category="Not satisfied"
smiles_structure=O=C(Nc1cccnc1C(=O)Nc1nccs1)c1ccccc1 target_under_test="EcMetAP (Escherichia coli)" category=Satisfied
smiles_structure=Cc1nc(C(=O)Nc2nccs2)cs1 target_under_test="EcMetAP (Escherichia coli)" category=Satisfied
smiles_structure=CC(C)(C)OC(=O)Nc1cccnc1C(=O)Nc1nccs1 target_under_test="EcMetAP (Escherichia coli)" category=Satisfied
smiles_structure=COc1ccccc1/C=C/C(=O)Oc1cccnc1C(=O)Nc1nccs1 target_under_test="EcMetAP (Escherichia coli)" category=Satisfied
smiles_structure=O=C(Oc1cccnc1C(=O)Nc1nccs1)c1ccc(F)cc1 target_under_test="EcMetAP (Escherichia coli)" category=Satisfied
smiles_structure=COc1ccnc(C(=O)Nc2nccs2)c1 target_under_test="EcMetAP (Escherichia coli)" category="Not satisfied"
smiles_structure=O=C(Oc1cccnc1C(=O)Nc1nccs1)c1cccc([N+](=O)[O-])c1 target_under_test="EcMetAP (Escherichia coli)" category=Satisfied
smiles_structure=O=C(Nc1nccs1)c1ncccc1OCc1ccccc1 target_under_test="EcMetAP (Escherichia coli)" category="Not satisfied"
